# ASSAY_PROCEDURE: resazurin metabolic signal in A549 cells – cell-based, resazurin fluorescence, 24 h, PK04 Diversity Set, profiling panel (AID 1171); note: test concentration not given here
# EXPERIMENTAL_PARAMETERS: A549 viability, higher = more signal, called active from +8 up or from −8 down
Below, each entry is listed alongside its reported z-score.
I'd appreciate a reply containing only the number, no unit.

# example entries with known answers
z-score reported for this compound COC(=O)C1=CC(CCCO)=CC(c2ccc(CN3CCCC3)cc2)N(Cc2cccc(OC(F)(F)F)c2)C=C1C(=O)OC (configuration not stated) : -1.16

Reported z-score of [N-]=[N+]=NCc1ccccc1[C@H]1OC(c2ccc(OCCCO)cc2)=N[C@@]1(Cc1ccccc1N=[N+]=[N-])C(=O)NCC(O)CO (some centres not stated) : 0.286

O=C1OCCC/C=C\[C@H]2OC34C=CCN(c5ccc6ccccc6c5)C(=O)[C@H]3N(CCO)C(=O)[C@@H]4C12 (some centres not stated) has a reported z-score of -1.48

compound CCOC(=O)C[C@H]1[C@H](OC(=O)Cc2ccc3c(c2)OCO3)[C@@H](NC(=O)c2ccc3ccccc3n2)c2cc(OCCCO)ccc2N1C(=O)c1ccccc1 , z-score observed: 0.231

For reference, reported z-score for CCCCC(CC)C(O)C1C=CC2C(=O)N(c3ccccc3)C(=O)C2N1Nc1ccc(C#N)cc1 (configuration not stated) stands at 0.857

More entries:
// z-score value for C=CC[C@]1(C(=O)N2CCCCC2)N=C(c2ccc(OCCCO)cc2)O[C@H]1c1ccccc1CN=[N+]=[N-] : 0.482

The compound identified as COC(=O)C(CC#Cc1ccc2c(c1)[C@]1(C(=O)N2)[C@H](c2ccc(O)cc2)N2[C@H](c3ccccc3)[C@H](c3ccccc3)OC(=O)[C@H]2[C@@H]1C(=O)NC[C@H](O)c1ccccc1)C(=O)OC registered its z-score at -0.407
